Entry source: patent US20060128708A1

# assay.protocol: Highest soluble concentration of DMPX in the injection vehicle
# Assay type: physicochemical
# study.conditions: saline or isotonic; dissolved in warm saline; read-out: highest DMPX soluble concentration achieved
reported.metric: solubility (µg/mL)
Answers are plain numbers, in µg/mL.

Incoming: Which solubility is reported for this compound? C#CCn1c(=O)c2c(ncn2C)n(C)c1=O [DMPX, 3,7-Dimethyl-1-propargylxanthine]
Outgoing: 10000
